Test system: Staphylococcus aureus
Assay: Antibacterial activity against methicillin resistant Staphylococcus aureus USA300
Assay type: functional
Items are presented alongside their recorded MIC.
Property name: MIC (µg/mL)

INSERT INTO measurements (smiles_structure, reading) VALUES
  ('CC(C)=CC[C@@H]1C[C@@]2(Cc3ccccc3)C(=O)[C@](CC=C(C)C)(C(=O)C(C(=O)c3ccccc3)=C2O)C1(C)C', 1),
  ('C=CC[C@@]12C(=O)C(C(=O)c3ccccc3)=C(O)[C@@](Cc3ccccc3)(C[C@@H](CC=C(C)C)C1(C)C)C2=O', 4),
  ('C=CC[C@@]12C[C@@H](CC=C(C)C)C(C)(C)[C@@](CC=C)(C(=O)C(C(=O)C(C)C)=C1O)C2=O', 2),
  ('CC(C)=CC[C@@]12C[C@@H](Cc3ccccc3)C(C)(C)[C@@](CC=C(C)C)(C(=O)C(C(=O)c3ccccc3)=C1O)C2=O', 4);
